Across several publications, the following pKi results were reported for UniProt P08908.
Molecular target: UniProt P08908
Sequence (P08908 whole entry): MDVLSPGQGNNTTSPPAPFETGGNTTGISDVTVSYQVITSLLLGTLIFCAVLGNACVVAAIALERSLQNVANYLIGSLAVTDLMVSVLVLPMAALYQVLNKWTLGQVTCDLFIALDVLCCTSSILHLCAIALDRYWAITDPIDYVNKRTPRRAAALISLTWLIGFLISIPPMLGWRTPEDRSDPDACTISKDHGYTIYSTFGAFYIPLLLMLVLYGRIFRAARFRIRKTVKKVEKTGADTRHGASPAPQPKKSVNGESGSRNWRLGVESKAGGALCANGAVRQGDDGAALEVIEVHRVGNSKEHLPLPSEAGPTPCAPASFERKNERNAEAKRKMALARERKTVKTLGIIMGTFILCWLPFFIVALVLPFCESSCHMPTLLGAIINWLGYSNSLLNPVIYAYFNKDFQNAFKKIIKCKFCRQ
pKi: −log10 of the molar value.
Measured property: pKi

O=S(=O)(NC1CCN(CCOc2ccccc2-c2ccccc2)CC1)c1ccc(Cl)s1 : 6.72

P: O=S(=O)(NC1CCN(CCOc2cccc3c2CCCC3)C1)c1cccs1 (stereo not given)
Q: COc1ccc(C2(C)NC(=O)N(CC(O)CN3CCN(c4ccccc4C#N)CC3)C2=O)cc1 (racemic)
R: O=c1[nH]c(CCCCN2CCN(c3ccccc3)CC2)nc2ccccc12
S: CC(=O)Nc1ccc(OCCCN2CCN(c3nsc4ccccc34)CC2)cc1
Order by pKi, ascending. List the labels in the requested order.
Q, S, R, P
(Q: 6.66, S: 7.16, R: 7.44, P: 7.89)

----------
Across several publications, the following Ki results were reported for 5-hydroxytryptamine receptor 1A (Homo sapiens, UniProt P08908).
Measured property: Ki (nM)

1: CN1CCC(c2c[nH]c3ccc(NC(=O)c4cccc(C#N)c4)nc23)CC1
2: O=C(NCCCCN1CCN(c2ccccc2)CC1)[C@H]1CCc2ccccc2N1
3: CN1CCN(C(=O)C(C)(C)c2ccc(C(=O)Nc3cn4cc(-c5cc(C(C)(C)C)cc(C(C)(C)C)c5)ccc4n3)cc2)CC1
Sort the entries above by Ki, largest first. List the labels in the requested order.
3, 1, 2
(3: 2560 nM, 1: 100 nM, 2: 9.9 nM)

A: CC1(c2ccc3ccccc3c2)NC(=O)N(CC(O)CN2CCN(c3ccccc3C#N)CC2)C1=O (centres undefined)
B: O=S(=O)(c1cncc2ccccc12)N1CCC(CCN2CCN(c3cccc(C(F)(F)F)c3)CC2)CC1
C: CSc1ccccc1N1CCN(CCCCn2ncc(=O)n(C)c2=O)CC1
D: COc1ccccc1N1CCC2(CCN(CCCSc3nnc(-c4ccccc4)n3C)CC2)CC1
E: OC(CNCCCCCCN1CC[C@H](c2ccc(F)cc2)[C@@H](COc2ccc3c(c2)OCO3)C1)COc1cccc2[nH]ccc12 (some centres undefined)
hey, can you rank those compounds up there by Ki? biggest number first please List the labels in the requested order.
D, A, B, E, C

----------
Across several publications, the following Ki results were reported for 5-hydroxytryptamine receptor 1A (Homo sapiens).
Measured property: Ki (nM)

Solved entries (count: 5):
Cc1sc2ncn(CCCCCN3CCN(c4cccc(Cl)c4)CC3)c(=O)c2c1C : 3.23
Cc1ccc(C(CCNC(C)c2ccc(Cl)cc2)c2ccco2)cc1 (stereo not given) : 9100
COc1ccccc1N1CCN(CCCN2C(=O)C[C@H](NC(=O)CC3CC4CCC3C4)C2=O)CC1 (stereo not given in full) : 40
O=C1c2ccccc2S(=O)(=O)N1CCCCCCN1CCN(c2ncccn2)CC1 : 24
O=C1CCc2ccc(CCCCCN3CCN(c4cccc(Cl)c4Cl)CC3)nc2N1 : 11.4

1: COc1cc2c(cc1N1C[C@@H](C)N(C)[C@@H](C)C1)N(C(=O)Cc1cccc([N+](=O)[O-])c1)CC2
2: CN(C)CCN(Cc1ccc(-c2ccc(CNCCc3ccccc3)cc2)cc1)C(=O)CCC1CCCC1
For this pair, 1 and 2 , which shows a numerically higher Ki? I would appreciate it if you answered with the label of your choice.
1

----------
Biological target: 5-hydroxytryptamine receptor 1A (Homo sapiens, UniProt P08908)
Sequence (P08908 whole entry): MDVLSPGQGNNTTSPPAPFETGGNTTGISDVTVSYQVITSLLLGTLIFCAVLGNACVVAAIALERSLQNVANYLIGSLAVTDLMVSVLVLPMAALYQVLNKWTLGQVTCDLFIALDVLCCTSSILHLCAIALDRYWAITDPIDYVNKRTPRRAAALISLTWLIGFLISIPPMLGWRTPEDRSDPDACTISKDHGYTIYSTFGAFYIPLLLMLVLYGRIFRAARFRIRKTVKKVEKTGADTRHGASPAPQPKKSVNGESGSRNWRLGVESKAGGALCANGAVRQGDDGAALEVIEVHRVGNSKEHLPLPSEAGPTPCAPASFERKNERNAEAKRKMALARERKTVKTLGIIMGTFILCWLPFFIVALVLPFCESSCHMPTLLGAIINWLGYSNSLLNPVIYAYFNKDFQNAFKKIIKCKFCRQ
Across several publications, the following Ki results were reported for 5-hydroxytryptamine receptor 1A (Homo sapiens, UniProt P08908).
Measured property: Ki (µM)

Solved entries (count: 5):
CN1CCN(c2nccc3cc4c(cc23)N(C(=O)c2cnn3ccccc23)CC4)CC1 : 0.000316
O=C1NCc2ccc3c(c21)CC(NCCCc1c[nH]c2ccc(F)cc12)CO3 (racemic) : 0.024
COc1ccccc1N1CCN(CCN2C=CC3(CCCC3)CC2=O)CC1 : 0.00384
Fc1ccc2c(C3CCN(CCCOc4ccc(CN5CCCCC5)cc4F)CC3)noc2c1 : 0.0906
COc1ccccc1N1CCN(CCC(Oc2ccc(C(F)(F)F)cc2)c2ccc(-c3ccccc3)cc2)CC1 (stereo not given) : 5.01

1: COc1cc2nc(N(C)CCCCCCN(C)C(=O)c3cccc(CN(C)C)c3)nc(N)c2cc1OC
2: O=C(NCCC(F)CN1CCN(c2cccc(Cl)c2Cl)CC1)c1cc2ccccc2s1 (stereo not given)
3: COc1cccc(N2CCN(CCCCNC(=O)c3ccc4ccccc4n3)CC2)c1
4: O=S(=O)(NC1CCN(CCOc2cccc3c2CCCC3)C1)c1cc(F)ccc1F (stereo not given)
hey, can you rank those compounds up there by Ki? biggest number first please List the labels in the requested order.
2, 1, 3, 4

----------
Target: 5-hydroxytryptamine receptor 1A (Homo sapiens, UniProt P08908)
Sequence (P08908 whole entry): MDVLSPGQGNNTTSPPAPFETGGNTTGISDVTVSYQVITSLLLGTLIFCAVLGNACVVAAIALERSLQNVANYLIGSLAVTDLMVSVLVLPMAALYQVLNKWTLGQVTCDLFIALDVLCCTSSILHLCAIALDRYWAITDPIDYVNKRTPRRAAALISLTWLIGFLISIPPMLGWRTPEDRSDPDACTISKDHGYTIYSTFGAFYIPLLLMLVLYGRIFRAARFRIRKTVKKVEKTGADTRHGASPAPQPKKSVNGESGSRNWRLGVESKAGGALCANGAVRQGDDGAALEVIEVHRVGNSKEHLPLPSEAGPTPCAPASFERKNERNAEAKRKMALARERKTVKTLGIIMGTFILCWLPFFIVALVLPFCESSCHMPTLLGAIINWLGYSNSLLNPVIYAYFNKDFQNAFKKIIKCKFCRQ
pKi: −log10 of the molar value.
Across several publications, the following pKi results were reported for 5-hydroxytryptamine receptor 1A (Homo sapiens, UniProt P08908).
Measured property: pKi

Solved entries (count: 5):
Fc1cccc(Cl)c1Oc1cccc(F)c1OC1CNC1 : 9.00
O=S(=O)(NC1CCN(CCOc2ccccc2-c2ccccc2)CC1)c1cccc(Cl)c1 : 6.63
COc1ccc2nc(NCCCCN3CCN(c4ccccc4OC)CC3)ccc2c1 : 9.70
Cc1ccc2c(OCCN3CCN(Cc4cccc5[nH]cnc45)CC3)cccc2n1 : 6.80
CC1CCN(CCc2ccc(OCCCCN3CCC(c4noc5cc(F)ccc45)CC3)cc2)CC1 : 8.36

a: Cc1ccc(COc2ccc(Br)cc2CNC(C)c2ccccc2)cc1 (stereo not given)
b: Cc1ccccc1C(=O)Nc1ccc2[nH]cc(C3CCN(C)CC3)c2n1
For this pair, a and b , which shows a numerically higher pKi? I would appreciate it if you answered with the label of your choice.
b

A: Cc1cc(OCCCN2CCN(c3ccccc3F)CC2)c2c(C)cc(=O)oc2c1
B: COc1cc(OC)c2c(c1CO)C[C@H]1c3cc4c(cc3CCN1C2)OCO4
Lower value for measured pKi? Options: A , B I would appreciate it if you answered with the label of your choice.
B
(B: 6.22, A: 8.52)

----------
Across several publications, the following Ki results were reported for 5-hydroxytryptamine receptor 1A (Homo sapiens).
Target: 5-hydroxytryptamine receptor 1A (Homo sapiens)
Sequence (P08908 whole entry): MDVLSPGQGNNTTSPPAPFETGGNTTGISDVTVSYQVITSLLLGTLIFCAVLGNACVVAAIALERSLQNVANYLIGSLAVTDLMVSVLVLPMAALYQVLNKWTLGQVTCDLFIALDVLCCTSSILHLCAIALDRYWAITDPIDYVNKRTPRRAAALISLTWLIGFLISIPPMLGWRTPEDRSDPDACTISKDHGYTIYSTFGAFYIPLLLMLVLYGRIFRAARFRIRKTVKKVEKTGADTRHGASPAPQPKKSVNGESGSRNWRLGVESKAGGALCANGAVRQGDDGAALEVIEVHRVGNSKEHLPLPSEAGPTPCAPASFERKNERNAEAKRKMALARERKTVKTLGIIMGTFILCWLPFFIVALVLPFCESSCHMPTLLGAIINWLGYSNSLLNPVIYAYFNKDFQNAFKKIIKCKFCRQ
Measured property: Ki (µM)

Solved entries (count: 8):
Cc1cc(OCCCN2CCOCC2)c2c(C)cc(=O)oc2c1 : 1.3
COc1ccccc1N1CCN(CCNc2ccc3ccccc3n2)CC1 : 0.033
O=C(NC1CCN(CCOc2ccccc2-c2ccccc2)C1)c1ccc2ccccc2n1 (stereo not given) : 0.045
Cc1cccc(N2CCN(CCCCNC(=O)c3cc4ccccc4o3)CC2)c1 : 0.0119
O=C(CN1CCC(CN2Cc3ccccc3C2=O)CC1)c1ccc(F)cc1 : 0.00753
CN1CCC(c2c[nH]c3ccc(NC(=O)c4ccccc4[N+](=O)[O-])nc23)CC1 : 0.064
CN1CCC(c2c[nH]c3ccc(NC(=O)C4CC4)nc23)CC1 : 1.4
O=S(=O)(NC1CCN(CCOc2ccccc2C2CCCC2)CC1)c1cccc(Cl)c1 : 0.556

A: COc1ccc(Br)c(CC2CCN(CCc3cc4c(cc3Cl)OCCO4)CC2)c1
B: COc1ccccc1N1CCN(CCCOc2ccc3c(C)cc(=O)oc3c2C(C)=O)CC1
For this pair, A and B , which shows a numerically higher Ki? I would appreciate it if you answered with the label of your choice.
A
(A: 0.00646 µM, B: 0.0006 µM)
